# experimental details: Sensory evaluation on the backside of the hand (spreading, fatty/greasy skin feel, absorption), untrained panellists
# condition details: blend with Grapeseed Oil vs without

[
  {
    "compound": "CCCCC(O)C(C)O (stereo not shown)",
    "Absorption/remaining residue Delta": 0.8
  },
  {
    "compound": "CCCCCC(O)CO (stereo not shown)",
    "Absorption/remaining residue Delta": 0.2
  },
  {
    "compound": "CCCCCC(O)C(C)O (stereo not shown)",
    "Absorption/remaining residue Delta": 0.2
  },
  {
    "compound": "CCCCCCC(O)CO (stereo not shown)",
    "Absorption/remaining residue Delta": 1
  }
]

---

Each item that follows carries a reported number of microorganisms after 2 days.
# Test system: Staphylococcus aureus (SA)
# experimental details: Preservation efficacy test (PET), European Pharmacopoeia 5.1.3
# Type: cell-based
# condition details: 0.2% in o/w emulsion

[
  {
    "compound": "CCCCC(O)C(C)O (stereo not shown) [2,3-heptanediol]",
    "number of microorganisms after 2 days": "1,300,000"
  },
  {
    "compound": "CCCCCC(O)C(C)O (stereo not shown) [2,3-octanediol]",
    "number of microorganisms after 2 days": "1,300,000"
  },
  {
    "compound": "CCCCCCC(O)CO (stereo not shown) [1,2-octanediol]",
    "number of microorganisms after 2 days": 1
  },
  {
    "compound": "CCCCCC(O)CO (stereo not shown) [1,2-heptanediol]",
    "number of microorganisms after 2 days": "95,000"
  }
]

---

# experimental details: Sensory evaluation on the backside of the hand (spreading, fatty/greasy skin feel, absorption), untrained panellists
# condition details: blend with Avocado Oil; scale 1 to 5
Each item that follows carries a reported Absorption/remaining residue with alkanediol.
quantity measured: Absorption/remaining residue with alkanediol

[
  {
    "compound": "CCCCCC(O)C(C)O (stereo not shown)",
    "assay value": 2.4
  },
  {
    "compound": "CCCCCCC(O)CO (stereo not shown)",
    "assay value": 2.6
  },
  {
    "compound": "CCCCC(O)C(C)O (stereo not shown)",
    "assay value": 2.4
  },
  {
    "compound": "CCCCCC(O)CO (stereo not shown)",
    "assay value": 2.6
  }
]

---

# Test system: Pseudomonas aeruginosa (PA)
# experimental details: Preservation efficacy test (PET), European Pharmacopoeia 5.1.3
# Assay type: cell-based
# condition details: 0.1% in shampoo
Each item that follows carries a reported number of microorganisms after 2 days.
quantity measured: number of microorganisms after 2 days

[
  {
    "compound": "CCCCCC(O)C(C)O (stereo not shown)",
    "assay value": "280,000"
  },
  {
    "compound": "CCCCCC(O)CO (stereo not shown)",
    "assay value": "2,500"
  },
  {
    "compound": "CCCCC(O)C(C)O (stereo not shown)",
    "assay value": "230,000"
  },
  {
    "compound": "CCCCCCC(O)C(C)O (stereo not shown)",
    "assay value": "160,000"
  }
]

---

# experimental details: Sensory evaluation on the backside of the hand (spreading, fatty/greasy skin feel, absorption), untrained panellists
# condition details: blend with Castor Oil vs without
Each item that follows carries a reported Absorption/remaining residue Delta.
quantity measured: Absorption/remaining residue Delta

[
  {
    "compound": "CCCCCCC(O)CO (stereo not shown)",
    "assay value": 1
  },
  {
    "compound": "CCCCC(O)C(C)O (stereo not shown)",
    "assay value": 0.6
  },
  {
    "compound": "CCCCCC(O)CO (stereo not shown)",
    "assay value": 0.4
  },
  {
    "compound": "CCCCCC(O)C(C)O (stereo not shown)",
    "assay value": 1.4
  }
]

---

# experimental details: Sensory evaluation on the backside of the hand (spreading, fatty/greasy skin feel, absorption), untrained panellists
# condition details: blend with Olive Oil vs without
quantity measured: Absorption/remaining residue Delta

[
  {
    "compound": "CCCCCC(O)CO (stereo not shown) [1,2-heptanediol]",
    "assay value": 1.6
  },
  {
    "compound": "CCCCCCC(O)CO (stereo not shown) [1,2-octanediol]",
    "assay value": 1.4
  },
  {
    "compound": "CCCCC(O)C(C)O (stereo not shown) [2,3-heptanediol]",
    "assay value": 2
  },
  {
    "compound": "CCCCCC(O)C(C)O (stereo not shown) [2,3-octanediol]",
    "assay value": 1.4
  }
]

---

Staphylococcus aureus measurements of MIC, listed per entry.

[
  {
    "compound": "CCCCCC(O)CO (centres unmarked)",
    "display unit": "µg/mL",
    "MIC": 10000
  },
  {
    "compound": "CCCCCC(O)C(C)O (centres unmarked)",
    "display unit": "µg/mL",
    "MIC": 5000
  },
  {
    "compound": "CCCCCCCC(O)CO (centres unmarked)",
    "display unit": "µg/mL",
    "MIC": 1000
  },
  {
    "compound": "CCCCCCCCC(O)CO (centres unmarked) [1,2-Decanediol, 1,2-decanediol, reference compound]",
    "display unit": "µg/mL",
    "MIC": 250
  },
  {
    "compound": "CCCCCCC(O)CO (centres unmarked)",
    "display unit": "µg/mL",
    "MIC": 2500
  },
  {
    "compound": "CCCCCCCCC(O)C(C)O (centres unmarked)",
    "display unit": "µg/mL",
    "MIC": 250
  },
  {
    "compound": "CCCCC(O)C(C)O (centres unmarked)",
    "display unit": "µg/mL",
    "MIC": 20000
  },
  {
    "compound": "CCCCCCC(O)C(C)O (centres unmarked)",
    "display unit": "µg/mL",
    "MIC": 2500
  }
]

---

Each item that follows carries a reported Absorption/remaining residue with alkanediol.
# experimental details: Sensory evaluation on the backside of the hand (spreading, fatty/greasy skin feel, absorption), untrained panellists
# condition details: blend with Helianthus Annuus (Sunflower) Seed Oil; scale 1 to 5
quantity measured: Absorption/remaining residue with alkanediol

[
  {
    "compound": "CCCCC(O)C(C)O (stereo not shown) [2,3-heptanediol]",
    "assay value": 2.6
  },
  {
    "compound": "CCCCCC(O)C(C)O (stereo not shown) [2,3-octanediol]",
    "assay value": 3.4
  },
  {
    "compound": "CCCCCC(O)CO (stereo not shown) [1,2-heptanediol]",
    "assay value": 2
  },
  {
    "compound": "CCCCCCC(O)CO (stereo not shown) [1,2-octanediol]",
    "assay value": 2
  }
]

---

Each item that follows carries a reported Absorption/remaining residue Delta.
# experimental details: Sensory evaluation on the backside of the hand (spreading, fatty/greasy skin feel, absorption), untrained panellists
# condition details: blend with Octocrylene (Neo Heliopan 303), vs without

[
  {
    "molecule": "CCCCCCC(O)CO (stereo not shown)",
    "Absorption/remaining residue Delta": 0.5
  },
  {
    "molecule": "CCCCC(O)C(C)O (stereo not shown)",
    "Absorption/remaining residue Delta": 0.5
  },
  {
    "molecule": "CCCCCC(O)C(C)O (stereo not shown)",
    "Absorption/remaining residue Delta": 1.5
  },
  {
    "molecule": "CCCCCC(O)CO (stereo not shown)",
    "Absorption/remaining residue Delta": 0.5
  }
]

---

Each item that follows carries a reported Absorption/remaining residue Delta.
# experimental details: Sensory evaluation on the backside of the hand (spreading, fatty/greasy skin feel, absorption), untrained panellists
# condition details: blend with Coconut Oil vs without
quantity measured: Absorption/remaining residue Delta

[
  {
    "compound": "CCCCCCC(O)CO (stereo not shown) [1,2-octanediol]",
    "quantity measured": "Absorption/remaining residue Delta",
    "assay value": 0.8
  },
  {
    "compound": "CCCCCC(O)CO (stereo not shown) [1,2-heptanediol]",
    "quantity measured": "Absorption/remaining residue Delta",
    "assay value": 1.4
  },
  {
    "compound": "CCCCC(O)C(C)O (stereo not shown) [2,3-heptanediol]",
    "quantity measured": "Absorption/remaining residue Delta",
    "assay value": 1
  },
  {
    "compound": "CCCCCC(O)C(C)O (stereo not shown) [2,3-octanediol]",
    "quantity measured": "Absorption/remaining residue Delta",
    "assay value": 1.2
  }
]

---

# experimental details: Sensory evaluation on the backside of the hand (spreading, fatty/greasy skin feel, absorption), untrained panellists
# condition details: blend with Helianthus Annuus (Sunflower) Seed Oil vs without

[
  {
    "compound": "CCCCCC(O)C(C)O (stereo not shown)",
    "Absorption/remaining residue Delta": 0.4
  },
  {
    "compound": "CCCCC(O)C(C)O (stereo not shown)",
    "Absorption/remaining residue Delta": 1
  },
  {
    "compound": "CCCCCC(O)CO (stereo not shown)",
    "Absorption/remaining residue Delta": 1.3
  },
  {
    "compound": "CCCCCCC(O)CO (stereo not shown)",
    "Absorption/remaining residue Delta": 1.8
  }
]
